molecular target: UniProt:P09874
Sequence (P09874 whole entry): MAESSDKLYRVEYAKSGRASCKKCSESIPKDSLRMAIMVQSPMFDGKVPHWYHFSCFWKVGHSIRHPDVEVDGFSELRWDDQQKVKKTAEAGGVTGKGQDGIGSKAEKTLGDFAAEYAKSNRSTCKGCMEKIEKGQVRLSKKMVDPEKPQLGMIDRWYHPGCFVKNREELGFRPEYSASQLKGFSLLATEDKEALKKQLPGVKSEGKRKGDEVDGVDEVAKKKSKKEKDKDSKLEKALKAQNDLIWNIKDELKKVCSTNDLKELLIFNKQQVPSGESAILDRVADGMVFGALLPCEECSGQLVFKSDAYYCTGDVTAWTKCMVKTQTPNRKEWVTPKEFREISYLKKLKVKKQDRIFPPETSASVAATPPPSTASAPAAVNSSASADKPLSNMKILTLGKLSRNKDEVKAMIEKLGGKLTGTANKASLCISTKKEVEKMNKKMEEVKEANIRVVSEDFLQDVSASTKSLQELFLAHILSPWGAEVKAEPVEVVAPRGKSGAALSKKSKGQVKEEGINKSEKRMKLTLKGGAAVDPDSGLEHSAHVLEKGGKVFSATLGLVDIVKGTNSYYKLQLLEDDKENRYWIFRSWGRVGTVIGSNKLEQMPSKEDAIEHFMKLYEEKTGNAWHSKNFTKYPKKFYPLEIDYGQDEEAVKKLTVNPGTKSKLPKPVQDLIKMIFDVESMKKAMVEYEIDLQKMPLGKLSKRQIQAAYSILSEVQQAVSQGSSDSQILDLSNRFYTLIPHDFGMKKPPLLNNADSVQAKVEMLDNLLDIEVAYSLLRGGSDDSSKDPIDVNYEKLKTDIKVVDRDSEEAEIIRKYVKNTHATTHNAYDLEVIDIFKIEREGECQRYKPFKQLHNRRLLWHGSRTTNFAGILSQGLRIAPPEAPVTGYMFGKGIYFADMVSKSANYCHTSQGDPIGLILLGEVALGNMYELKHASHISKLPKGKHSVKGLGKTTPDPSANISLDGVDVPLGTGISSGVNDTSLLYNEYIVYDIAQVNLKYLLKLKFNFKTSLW
reportedProperty: pIC50
Answers are plain numbers, as −log10 of the molar value.

## Input I would be grateful if you could share the reported pIC50 for `C[C@]1(c2ccc(-c3[nH]c4cc(F)cc5c4c3CONC5=O)cc2)CCCN1` .
## Output 8.64

----------
Experiment: Protein binding rate in plasma (equilibrium dialysis), human
Assay type: in vitro ADME
Conditions: 4 h dialysis
Method: The protein binding rates of the compound disclosed herein in plasma of human, CD-1 mice and SD rats were determined. 796 μL of blank plasma was taken from human, CD-1 mice or SD rats, and 4 μL of test compound working solution (400 μM) or warfarin working solution (400 μM) was added to achieve a final concentration of 2 μM of both the test compound and the warfarin in the plasma sample. The samples were mixed well. […]
reportedProperty: fraction unbound at 4 h, 2 μM
Numbers only.

## Input I would be grateful if you could share the reported fraction unbound at 4 h, 2 μM for `C[C@]1(c2ccc(-c3[nH]c4cc(F)cc5c4c3CONC5=O)cc2)CCCN1` .
## Output 0.149

All values here come from patent US20230331739A1.
